Tested on: MCF-7
experiment notes: drug sensitivity score (DSS) (DSS (dimensionless)); higher = more sensitive; extreme values may be limits of the assay
settings: 4-OH-tamoxifen in medium 0 µM; 72 h
Structures can show the parent of a compound that is named as a salt.
experimental readout: drug sensitivity score
Write the value as a bare number.

**Q:** Using the record for CC(C)c1c(C(=O)Nc2ccccc2)c(-c2ccccc2)c(-c2ccc(F)cc2)n1CC[C@@H](O)C[C@@H](O)CC(=O)O , state its measured drug sensitivity score.
**A:** 0.619

**Q:** State its drug sensitivity score: CC[C@@]1(O)C(=O)OCc2c1cc1n(c2=O)Cc2cc3ccccc3nc2-1
**A:** 23

**Q:** Assign drug sensitivity score to the following record: C=CC(=O)N1CCC[C@@H](n2nc(-c3ccc(Oc4ccccc4)cc3)c3c(N)ncnc32)C1
**A:** 0

**Q:** Note drug sensitivity score for the compound shown: CN1CCN(c2nc(C3=C(c4c[nH]c5ccccc45)C(=O)NC3=O)c3ccccc3n2)CC1
**A:** 0.517

**Q:** Answer with the recorded drug sensitivity score for the compound listed here: CC(O)(CS(=O)(=O)c1ccc(F)cc1)C(=O)Nc1ccc(C#N)c(C(F)(F)F)c1 (stereo not given) [Bicalutamide]
**A:** 0

**Q:** // Input: Nc1nc(=O)c2c([nH]1)NCC(CNc1ccc(C(=O)N[C@@H](CCC(=O)O)C(=O)O)cc1)N2C=O (mixture of isomers) . Output its drug sensitivity score only.
**A:** 0

**Q:** Entry S=P(N1CC1)(N1CC1)N1CC1 needs its drug sensitivity score filled in; supply it.
**A:** 0

**Q:** // fetch drug sensitivity score given entry COc1cc(CCc2cc(NC(=O)c3ccc(N4CC(C)NC(C)C4)cc3)n[nH]2)cc(OC)c1 (stereo not given)
**A:** 0

**Q:** Return drug sensitivity score for the following compound: CN1CC[C@H](c2c(O)cc(O)c3c(=O)cc(-c4ccccc4Cl)oc23)[C@H](O)C1
**A:** 13.6

**Q:** // Input: Cc1ccc([N+](=O)[O-])cc1S(=O)(=O)N(C)/N=C/c1cnc2ccc(Br)cn12 [PIK-75 (HCl)] . Output its drug sensitivity score only.
**A:** 22.3

**Q:** Provide drug sensitivity score value for the following compound: COc1nc(N)nc2c1ncn2[C@@H]1O[C@H](CO)[C@@H](O)[C@@H]1O
**A:** 0.277

**Q:** Specify reported drug sensitivity score for the compound shown: CN(C)/N=N/c1[nH]cnc1C(N)=O
**A:** 0

**Q:** Input NCC(=O)CCC(=O)O , output reported drug sensitivity score.
**A:** 0

**Q:** Quick one: give measured drug sensitivity score for CC[C@]1(O)C[C@H]2CN(CCc3c([nH]c4ccccc34)[C@@](C(=O)OC)(c3cc4c(cc3OC)N(C=O)[C@H]3[C@@](O)(C(=O)OC)[C@H](OC(C)=O)[C@]5(CC)C=CCN6CC[C@]43[C@@H]65)C2)C1
**A:** 19.1

**Q:** Quick one: give measured drug sensitivity score for O=C(Cc1ccc(-c2ccc(OCCN3CCOCC3)cc2)cn1)NCc1ccccc1
**A:** 11.2

// provenance: the supplement of paper PMC4932681
